The following compounds are shown together with reported EC50 values.
molecular target: apelin receptor (APJ) (Homo sapiens); assay: In vitro apelin agonist activity (methods of Giddings et al., Apelin-13 as positive control); format: cell-based; details: in vitro apelin agonist activity, methods of Giddings et al., Apelin-13 as positive control; read-out: EC50 (nM) Ave
Your answer should be a plain number; it is taken to be in nM.

Ask: Give me measured EC50, please, for this compound: O=C(O)C[C@H](CCc1ccc(F)cc1)NC(=O)c1cc(-c2ccccc2C(F)(F)F)n(C2CCCC2)n1
Result: 1240

Ask: Give me measured EC50, please, for this compound: O=C(C[C@H](CCc1ccc(F)cc1)NC(=O)c1cc(-c2ccccc2C(F)(F)F)n(C2CCCC2)n1)NN1CCCC1
Result: 2190

Ask: Give me measured EC50, please, for this compound: CC(F)(F)c1ccccc1-c1cc(C(=O)N[C@@H](CCN2CCC(=O)CC2(C)C)CC(=O)O)nn1C1CCCC1
Result: 509

Ask: Give me measured EC50, please, for this compound: O=C(C[C@H](CCN1CCCC(F)(F)C1)NC(=O)c1cc(-c2ccccc2C(F)(F)F)n(C2CCCC2)n1)Nc1nccs1
Result: 10.6

---

The following molecules are shown together with reported EC50 values.
molecular target: apelin receptor (APJ) (Homo sapiens, UniProt P35414); experiment: In vitro apelin agonist activity (methods of Giddings et al., Apelin-13 as positive control); format: cell-based; settings: in vitro apelin agonist activity, methods of Giddings et al., Apelin-13 as positive control; read-out: EC50 (nM) Ave
Sequence (P35414 whole entry): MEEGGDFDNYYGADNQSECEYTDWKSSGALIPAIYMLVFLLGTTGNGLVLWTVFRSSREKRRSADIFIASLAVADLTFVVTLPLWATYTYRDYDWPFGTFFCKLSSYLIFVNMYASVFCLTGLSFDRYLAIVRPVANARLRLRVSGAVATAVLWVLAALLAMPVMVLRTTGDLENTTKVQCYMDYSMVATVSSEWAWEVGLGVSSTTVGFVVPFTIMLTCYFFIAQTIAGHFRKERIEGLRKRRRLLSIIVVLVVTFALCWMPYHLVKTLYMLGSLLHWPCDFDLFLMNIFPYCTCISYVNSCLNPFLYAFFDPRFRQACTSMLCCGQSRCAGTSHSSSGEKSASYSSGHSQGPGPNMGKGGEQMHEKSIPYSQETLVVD
Your answer should be a plain number; it is taken to be in nM.

Worked examples follow.
O=C(C[C@H](CCN1CCCC(F)(F)C1)NC(=O)c1cc(-c2ccncc2Cl)n(C2CCCC2)n1)NC1CCC1 [compound 457] :: 1320
O=C(O)C[C@H](CCN1CC[C@@H](F)C1)NC(=O)c1cc(-c2ccccc2C(F)(F)F)n(C2CCCC2)n1 [compound 590] :: 1160
CC(C(=O)NC1CCC1)[C@H](CCN1CC2C(C1)C2(F)F)NC(=O)c1cc(-c2ccccc2C(F)(F)F)n(C2CCCC2)n1 (some centres unmarked) [compound 636] :: 158
COc1cccc(OC)c1-c1cc(C(=O)N[C@@H](CCN2CCCCC2)CC(=O)N(C)C2CCC2)nn1C1CCCC1 [compound 331] :: 353
O=C(O)C[C@H](CCN1C[C@H](F)[C@@H](F)C1)NC(=O)c1cc(-c2ccccc2C(F)(F)F)n(C2CCCC2)n1 [compound 582] :: 109
CC(C)Cn1nc(C(=O)N[C@@H](CCN2CCCC(F)(F)C2)CC(=O)O)cc1-c1ccccc1C(F)(F)F [compound 565] :: 544
CCc1ccccc1-c1cc(C(=O)N[C@@H](CCN2CCCC(F)(F)C2)CC(=O)NC2CCC2)nn1C1CCCC1 [compound 412] :: 5
O=C(O)C[C@H](CCN1CCCC(F)(F)C1)NC(=O)c1cc(-c2ccc(Cl)cc2C(F)(F)F)n(C2CCCC2)n1 [compound 555] :: 1570
O=C(C[C@H](CCN1C2CCCC1CC2)NC(=O)c1cc(-c2ccccc2C(F)(F)F)n(C2CCCC2)n1)NC1CCC1 [compound 498] :: 105
COc1cccc(OC)c1-c1cc(C(=O)N[C@@H](CCc2ccc(F)cc2)CC(=O)NC2CCC2)nn1C1CCCC1 [compound 416] :: 606

Ask: Give me measured EC50, please, for this molecule: COCCN(C)C(=O)C[C@H](CCN1CCCCC1)NC(=O)c1cc(-c2c(OC)cccc2OC)n(C2CCCC2)n1 [compound 334]
Result: 6570

Ask: Give me measured EC50, please, for this molecule: O=C(O)C[C@H](CCN1CCC(F)(F)C1)NC(=O)c1cc(-c2ccccc2C(F)(F)F)n(C2CCCC2)n1 [compound 485]
Result: 110

The reported measurements were obtained from patent US11535630B2.
